targetDesc: human GLP-1 receptor (human, UniProt P43220 24-463)
procedureText: cell-based or functional assay
quantityMeasured: EC50, cAMP (pM)

[[record]]
binder = "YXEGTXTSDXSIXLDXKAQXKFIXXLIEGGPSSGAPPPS (Aib2, αMeF(2F)6, 4Pal10, αMeL13, Orn16, Aib20, D-Glu24, αMeY25, K17 and K21: K(AEEA2-(γ-Glu)-CO-(CH2)12-CO2H), C-terminal NH2) [Example 15]"
quantitymeasured = "EC50, cAMP"
unittag = "pM"
reading = 995

[[record]]
binder = "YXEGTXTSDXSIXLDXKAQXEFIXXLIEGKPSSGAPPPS (Aib2, αMeF(2F)6, 4Pal10, αMeL13, Orn16, Aib20, D-Glu24, αMeY25, K17 and K30: K(AEEA2-(γ-Glu)-(4-(4-tert-butylphenyl)butanoyl)), C-terminal NH2) [Example 134]"
quantitymeasured = "EC50, cAMP"
unittag = "pM"
reading = 577

[[record]]
binder = "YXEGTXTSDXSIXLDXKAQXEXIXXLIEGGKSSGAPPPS (Aib2, αMeF(2F)6, 4Pal10, αMeL13, Orn16, Aib20, 3FPhe22, D-Glu24, αMeY25, K17 and K31: K(AEEA2-(γ-Glu)-CO-(CH2)12-CO2H), C-terminal NH2) [Example 64]"
quantitymeasured = "EC50, cAMP"
unittag = "pM"
reading = 557

[[record]]
binder = "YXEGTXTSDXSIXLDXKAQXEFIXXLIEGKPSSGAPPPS (Aib2, αMeF(2F)6, 4Pal10, αMeL13, Orn16, Aib20, D-Glu24, αMeY25, K17 and K30: K(AEEA2-(γ-Glu)-CO-(CH2)12-CO2H), C-terminal NH2) [Example 18]"
quantitymeasured = "EC50, cAMP"
unittag = "pM"
reading = 5060

[[record]]
binder = "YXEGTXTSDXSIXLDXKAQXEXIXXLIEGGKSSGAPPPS (Aib2, αMeF(2F)6, 4Pal10, αMeL13, Orn16, Aib20, 2ClPhe22, D-Glu24, αMeY25, K17 and K31: K(AEEA2-(γ-Glu)-CO-(CH2)12-CO2H), C-terminal NH2) [Example 61]"
quantitymeasured = "EC50, cAMP"
unittag = "pM"
reading = 1350

[[record]]
binder = "YXEGTXTSDXSIXLDXQAQXEFIXXLIKGGKSSGAPPPS (Aib2, αMeF(2F)6, 4Pal10, αMeL13, Orn16, Aib20, D-Glu24, αMeY25, K28 and K31: K(AEEA2-(γ-Glu)-CO-(CH2)12-CO2H), C-terminal NH2) [Example 86]"
quantitymeasured = "EC50, cAMP"
unittag = "pM"
reading = 359

